# System: Pasteurella multocida PM 10775 (080130003051, BRD field isolate)
# protocol text: MIC, broth-microdilution (CLSI VET01-A4), strain PM 10775
# Format: cell-based
# condition description: Pasteurella multocida strain PM 10775, broth-microdilution; unit assumed
Reported MIC PM 10775 by item:

Consider the following illustrative entries.
{"molecule": "COCCNCc1ccc(C#Cc2ccc(C(=O)N[C@H](C(=O)NO)C(C)(C)S(C)(=O)=O)cc2)cn1", "MIC PM 10775": "≤ 0.1 µg/mL"}
{"molecule": "O=C(N[C@@H](CO)C(=O)NO)c1ccc(C#Cc2ccc(CN3CCOCC3)cc2)cc1", "MIC PM 10775": "≤ 0.1 µg/mL"}
{"molecule": "CON=C(C)[C@H](NC(=O)c1ccc(C#Cc2ccc(CNCc3cccnc3)cc2)cc1)C(=O)NO", "MIC PM 10775": "0.2 µg/mL"}
{"molecule": "COc1ccc(CNCc2ccc(C#Cc3ccc(C(=O)N[C@H](C(=O)NO)C(C)(C)O)cc3)s2)cc1", "MIC PM 10775": "≤ 0.1 µg/mL"}
{"molecule": "COCCNCc1ccc(C#Cc2ccc(C(=O)N[C@H](C(=O)NO)C(C)(C)SC)cc2)s1", "MIC PM 10775": "≤ 0.1 µg/mL"}

Task: What value of MIC PM 10775 has been reported for the following molecule? `COc1ccc(CNCc2ccc(C#Cc3ccc(C(=O)N[C@H](C(=O)NO)C(C)(C)S(C)(=O)=O)cc3)cc2)cc1`
Result: ≤ 0.1 µg/mL

====

# Test system: Pasteurella multocida PM 10775 (080130003051, BRD field isolate)
# protocol text: MIC, broth-microdilution (CLSI VET01-A4), strain PM 10775
# Type: cell-based
# condition description: Pasteurella multocida strain PM 10775, broth-microdilution; unit assumed
Each entry below carries its reported MIC PM 10775.

Take a look at these entries with their results.
{"structure string": "COc1ccc(CNCc2ccc(C#Cc3ccc(C(=O)N[C@H](C(=O)NO)C(C)(C)S(C)(=O)=O)cc3)cn2)cc1", "property measured": "MIC PM 10775", "recorded value": "≤ 0.1 mg/L"}
{"structure string": "O=C(N[C@@H](CO)C(=O)NO)c1ccc(C#Cc2ccc(CN3CCN(c4ccccc4)CC3)cc2)cc1", "property measured": "MIC PM 10775", "recorded value": "≤ 0.1 mg/L"}
{"structure string": "COCCNCc1ccc(C#Cc2ccc(C(=O)N[C@H](C(=O)NO)C(C)(C)SC)cc2)cc1", "property measured": "MIC PM 10775", "recorded value": "≤ 0.1 mg/L"}
{"structure string": "CC(=O)[C@H](NC(=O)c1ccc(C#Cc2ccc(CN3CCOCC3)cc2)cc1)C(=O)NO", "property measured": "MIC PM 10775", "recorded value": "0.8 mg/L"}

Task: Using the record for `CC(C)NCc1ccc(C#Cc2ccc(C(=O)N[C@@H](CO)C(=O)NO)cc2)cc1` , report its MIC PM 10775.
Result: 0.8 mg/L

Task: What MIC PM 10775 value was documented for this molecule, `C=CCNCc1ccc(C#Cc2ccc(C(=O)N[C@H](C(=O)NO)C(C)(C)O)cc2)cn1` ?
Result: ≤ 0.1 mg/L

Task: Returns the measured MIC PM 10775 for the input molecule. Input: `CC(C)[C@H](NC(=O)c1ccc(C#Cc2ccc(CNC3CCC3)cc2)cc1)C(=O)NO`
Result: ≤ 0.1 mg/L

Task: Which MIC PM 10775 reading was recorded for the molecule `CC(C)([C@H](NC(=O)c1ccc(C#Cc2ccc(CNCc3ccnc(Cl)c3)cc2)cc1)C(=O)NO)S(C)(=O)=O` ?
Result: ≤ 0.1 mg/L
